B1: IFRG15 (parent)
chain: INRADYCPECYPDNPANRSLVLPW

Variants of: B1
Test: protein stability index of a GFP-peptide fusion (GPS, HEK-293T) (PSI 1-6); higher = more stable;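 note: lentivirally expressed fusions sorted by FACS into six bins by GFP to DsRed ratio, PSI derived from sequencing read proportions per bin multiplied by bin number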
Conditions: c terminus: a fixed tail appended
endpoint: protein stability index
Number only, please.

>>> reportedvalue("D13I")
1.71
>>> reportedvalue("W24P")
2.62
>>> reportedvalue("P8Y")
2.48
>>> reportedvalue("D13R")
1.69
>>> reportedvalue("P23E")
1.03
>>> reportedvalue("D13C")
1.97
>>> reportedvalue("D5C")
1.92
>>> reportedvalue("N17W")
1.6
>>> reportedvalue("W24M")
2.23
>>> reportedvalue("N17Y")
1.74

Looking up C10K , I found its protein stability index recorded as 2.59
